Recorded values, source patent US20260092074A1.

For each of the compounds below, state its IC50.
experimental_target: human CYP11B2 (Homo sapiens)
Construct: expressed in transfected cells
Sequence (P19099 25-503): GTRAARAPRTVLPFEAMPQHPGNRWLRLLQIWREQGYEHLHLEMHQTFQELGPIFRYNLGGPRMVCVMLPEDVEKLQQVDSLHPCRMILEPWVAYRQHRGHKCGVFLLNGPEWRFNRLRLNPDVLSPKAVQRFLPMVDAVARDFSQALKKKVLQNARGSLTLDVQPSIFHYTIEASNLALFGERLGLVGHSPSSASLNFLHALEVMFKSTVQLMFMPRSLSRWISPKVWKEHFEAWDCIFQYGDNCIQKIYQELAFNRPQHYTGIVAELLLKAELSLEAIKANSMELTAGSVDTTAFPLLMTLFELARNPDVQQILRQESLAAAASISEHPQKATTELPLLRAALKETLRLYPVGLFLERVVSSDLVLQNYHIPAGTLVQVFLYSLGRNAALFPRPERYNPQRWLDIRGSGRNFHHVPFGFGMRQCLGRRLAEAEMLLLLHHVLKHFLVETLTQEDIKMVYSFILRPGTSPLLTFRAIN
test_name: Inhibition of hCYP11B2 in transfected V79 cells
Format: cell-based
applied_conditions: hamster V79 cells expressing human CYP11B2; substrate 11-deoxycorticosterone 200 nM
Answers are plain numbers, in nM.

A selection of reference data follows.
[[record]]
smiles_input = "N#Cc1ccc(-c2cncc3c2CCN3C(=O)Cc2cccc(C(F)(F)F)c2)cc1"
property_measured = "IC50"
unit_string = "nM"
numeric_readout = 9

[[record]]
smiles_input = "N#Cc1ccc(-c2cncc3c2OCCN3C(=O)Cc2cccc(C(F)(F)F)c2)cc1"
property_measured = "IC50"
unit_string = "nM"
numeric_readout = 5.7

[[record]]
smiles_input = "O=S(=O)(c1ccc(O)nc1)N1CCSc2c(-c3cc4cc(Cl)ccc4o3)cncc21"
property_measured = "IC50"
unit_string = "nM"
numeric_readout = 16


Please go through the list and note IC50 for each compound.
1. N#Cc1ccc(-c2cncc3c2SCCN3S(=O)(=O)C2CN(Cc3cccc(C#N)c3)C2)cc1
2. O=C1COc2ccc(S(=O)(=O)N3CCSc4c(-c5cc6cc(Cl)ccc6o5)cncc43)cc2N1
3. COc1cccc(C(=O)N2CC(S(=O)(=O)N3CCSc4c(-c5ccc(C#N)cc5)cncc43)C2)c1
4. N#CN1CC2(CC(S(=O)(=O)N3CCSc4c(-c5cc6cc(Cl)ccc6o5)cncc43)C2)C1
5. N#Cc1ccc(-c2cncc3c2SCCN3S(=O)(=O)c2cccc3ccccc23)cc1

1: 0.4; 2: 0.5; 3: 0.3; 4: 3.2; 5: 5.2
